- MEASUREMENT PROTOCOL: qHTS assay for small molecule agonists of the p53 signaling pathway - cell viability (AID 651633); note: nearly all actives have a fitted effect of over 30% in size
- STUDY CONDITIONS: p53RE-bla HCT-116 viability, ATP luminescence, 16 h; series mostly up to 83.3 µM
Records with an inconclusive call do not appear. Activity calls are given as the source filed them. Calls come from the whole dose curve.
Labels: yes = active, no = inactive

MOLECULE	ASSIGNED CATEGORY
CCC(C)C(C(=O)OCC[N+](C)(CC)CC)c1ccccc1 (configuration not stated)	no
COc1ccc(-c2noc(CC(=O)O)c2-c2ccc(OC)cc2)cc1	no
CCCCCCCCCCCCCCCC(=O)O[C@@H]1[C@@H](O)[C@@H](O)[C@@H]([C@H](NC(=O)[C@@H]2C[C@@H](CCC)CN2C)[C@H](C)Cl)O[C@@H]1SC	no
CC1CS(=O)(=O)CCN1/N=C/c1ccc([N+](=O)[O-])o1 (configuration not stated)	no
CC(=O)[C@@]1(O)CC[C@H]2[C@@H]3C=C(Cl)C4=CC(=O)[C@@H]5C[C@@H]5[C@]4(C)[C@H]3CC[C@@]21C	no
C[N@+]12CCCC[C@@H]1CCC(=C(c1cccs1)c1cccs1)C2	no
CN[C@@H]1[C@@H](O)[C@@H](O[C@@H]2[C@@H](O)[C@H](O[C@H]3O[C@H](CN)[C@@H](O)[C@H](O)[C@H]3O)[C@@H](N)C[C@H]2NC(=O)C(O)CN)OC[C@]1(C)O (some centres not stated)	no
OC[C@@H](O)C(O)[C@H](O)CO	no
CCN(CC)CCOc1ccccc1OC	no
COc1c(O[C@@H]2O[C@H](CO)[C@@H](O)[C@H](O)[C@H]2O)cc2c(c1OC)-c1ccc(SC)c(=O)cc1[C@@H](NC(C)=O)CC2	no
CN1CCC(CN2c3ccccc3Sc3ccccc32)C1 (configuration not stated)	no
CCNC(=O)[C@@H]1CCCN1C(=O)[C@H](CCCN=C(N)N)NC(=O)[C@H](CC(C)C)NC(=O)[C@@H](CC(C)C)NC(=O)[C@H](Cc1ccc(O)cc1)NC(=O)[C@H](CO)NC(=O)[C@H](Cc1c[nH]c2ccccc12)NC(=O)[C@H](Cc1cnc[nH]1)NC(=O)[C@@H]1CCC(=O)N1	no
COC(=O)C1=C(C#N)NC(C)=C(C(=O)OC(C)C)C1c1cccc([N+](=O)[O-])c1 (configuration not stated)	no
Cc1cc(Nc2ccccc2C(=O)O)ccc1Cl	yes
CCOC(=O)Nc1ccc2c(c1)N(C(=O)CN(C)C)c1ccccc1CC2	no
CC#CCC(C)[C@H](O)/C=C/[C@@H]1[C@H]2C/C(=C/CCCC(=O)O)C[C@H]2C[C@H]1O (some centres not stated)	no
O=C(NOC[C@H](O)CO)c1ccc(F)c(F)c1Nc1ccc(I)cc1F	no
